Cited source: ChEMBL document CHEMBL4831491

As shown below, each of these molecules has a reported IC50 value.
# method_notes: Inhibition of ALR1 in Wistar rat kidney assessed as reduction in NADPH consumption using sodium D-glucuronate and NADPH as substrate preincubated for 1 mins followed by substrate addition and measured upto 4 mins by spectrophotometric analysis
# Assay type: tissue-based
measured_attribute: IC50 (µM)

INSERT INTO assay_data (mol_smiles, unit_name, recorded_result) VALUES
  ('O=C(CN1C(=O)S/C(=C\c2ccc(O)cc2)C1=O)Nc1ccccc1', 'µM', 3.91),
  ('CCCCNC(=O)CN1C(=O)S/C(=C\c2ccc(O)cc2)C1=O', 'µM', 48.5),
  ('O=C(CN1C(=O)S/C(=C\c2cccc(O)c2)C1=O)NCc1ccccc1', 'µM', 28),
  ('O=C(CN1C(=O)S/C(=C\c2ccc(O)cc2)C1=O)Nc1ccc(F)cc1', 'µM', 8.06),
  ('CCCCNC(=O)CN1C(=O)S/C(=C\c2ccc(OC)cc2)C1=O', 'µM', 17),
  ('COc1ccc(NC(=O)CN2C(=O)S/C(=C\c3ccc(O)cc3)C2=O)cc1', 'µM', 5.3),
  ('O=C(CN1C(=O)S/C(=C\c2ccc(O)cc2)C1=O)Nc1ccccc1Cl', 'µM', 13.5),
  ('CCN(CC)C(=O)CN1C(=O)S/C(=C\c2ccc(O)cc2)C1=O', 'µM', 12.5),
  ('CCc1ccccc1NC(=O)CN1C(=O)S/C(=C\c2ccc(O)cc2)C1=O', 'µM', 2.85);
